- System: Amaranthus rudis (AMATA)
- Method Description: Postemergence herbicide evaluation, percent reduction in plant size vs untreated control, 21 days after treatment
- Type: in vivo, Amaranthus rudis (tall water hemp)
- Condition Parameters: Amaranthus tuberculatus, post-emergence, 504 h, AMATA, rate 280 g ae/ha, postemergence; read-out: Control/Injury
Property Label: pest or weed control at 280 g/ha (%)

INSERT INTO assay_data (compound, unit_tag, value_reported) VALUES
  ('COc1c(Cl)ccc(Cl)c1C(=O)O/N=C/c1cccnc1 [Compound A-81]', '%', 8),
  ('CCOC(=O)/C(C#N)=N/OC(=O)c1c(Cl)ccc(Cl)c1OC [Compound A-86]', '%', 67),
  ('COc1c(Cl)ccc(Cl)c1C(=O)O/N=C(\N)C(C)C [Compound A-48]', '%', 90),
  ('COc1c(Cl)ccc(Cl)c1C(=O)N1C(=O)C(=O)c2ccccc21 [Compound A-116]', '%', 33),
  ('CO/C(=N\OC(=O)c1c(Cl)ccc(Cl)c1OC)c1ccccc1 [Compound A-83]', '%', 65),
  ('CCCCCC(=O)NOC(=O)c1c(Cl)ccc(Cl)c1OC [Compound A-80]', '%', 38),
  ('CCN(CC)OC(=O)c1c(Cl)ccc(Cl)c1OC [Compound A-64]', '%', 2),
  ('COc1c(Cl)ccc(Cl)c1C(=O)O/N=C(\N)CCC/C(N)=N/OC(=O)c1c(Cl)ccc(Cl)c1OC [Compound A-144]', '%', 77),
  ('CCOC(=O)C(=NOC(=O)c1c(Cl)ccc(Cl)c1OC)C(=O)OCC [Compound A-87]', '%', 20),
  ('COc1c(Cl)ccc(Cl)c1C(=O)NOCc1ccccc1 [Compound A-98]', '%', 13),
  ('COc1c(Cl)ccc(Cl)c1C(=O)O/N=C/c1cccc(/C=N/OC(=O)c2c(Cl)ccc(Cl)c2OC)c1 [Compound A-143]', '%', 48),
  ('CC/C(C)=N/OC(=O)c1c(Cl)ccc(Cl)c1OC [Compound A-91]', '%', 78);

----------
- Test system: Kochia scoparia (KCHSC)
- Method Description: Postemergence herbicide evaluation, percent reduction in plant size vs untreated control, 21 days after treatment
- Format: in vivo
- Condition Parameters: Bassia scoparia, post-emergence, 504 h, KCHSC; rate 280 g ae/ha; postemergence, percent reduction vs untreated, 21 days after treatment; read-out: Control/Injury
Decision: pest or weed control at 280 g/ha >= 20% yields Satisfied, all other cases yield Not satisfied.

INSERT INTO assay_data (compound, assigned_category) VALUES
  ('COc1c(Cl)ccc(Cl)c1C(=O)n1cnc2ccccc21', 'Not satisfied'),
  ('COC(=O)C(C(=O)OC)C(=O)c1c(Cl)ccc(Cl)c1OC', 'Not satisfied'),
  ('COc1c(Cl)ccc(Cl)c1C(=O)O/N=C(\N)CCC/C(N)=N/OC(=O)c1c(Cl)ccc(Cl)c1OC', 'Satisfied'),
  ('COc1c(Cl)ccc(Cl)c1C(=O)N1C(=O)C(=O)c2ccccc21', 'Not satisfied'),
  ('COc1c(Cl)ccc(Cl)c1C(=O)N1CCCCO1', 'Not satisfied'),
  ('COc1c(Cl)ccc(Cl)c1C(=O)O [Dicamba, 3,6-dichloro-2-methoxybenzoic acid, reference compound]', 'Satisfied'),
  ('COc1c(Cl)ccc(Cl)c1C(=O)Oc1cc2ccccc2n1C', 'Satisfied'),
  ('COc1c(Cl)ccc(Cl)c1C(=O)n1ccnc1', 'Satisfied'),
  ('COc1c(Cl)ccc(Cl)c1C(=O)Oc1ncn(-c2ccccc2)n1', 'Satisfied'),
  ('COc1c(Cl)ccc(Cl)c1C(=O)NCc1ccccc1', 'Not satisfied'),
  ('COc1c(Cl)ccc(Cl)c1C(=O)NNCc1ccccc1', 'Not satisfied'),
  ('CCCCCCNC(=O)c1c(Cl)ccc(Cl)c1OC', 'Not satisfied'),
  ('C=CCONC(=O)c1c(Cl)ccc(Cl)c1OC', 'Not satisfied'),
  ('COc1c(Cl)ccc(Cl)c1C(=O)NOC1CCCCO1 (stereo not drawn)', 'Not satisfied');
